Biological target: hMAT2A (Homo sapiens (Human), UniProt P31153)
Sequence (P31153 whole entry): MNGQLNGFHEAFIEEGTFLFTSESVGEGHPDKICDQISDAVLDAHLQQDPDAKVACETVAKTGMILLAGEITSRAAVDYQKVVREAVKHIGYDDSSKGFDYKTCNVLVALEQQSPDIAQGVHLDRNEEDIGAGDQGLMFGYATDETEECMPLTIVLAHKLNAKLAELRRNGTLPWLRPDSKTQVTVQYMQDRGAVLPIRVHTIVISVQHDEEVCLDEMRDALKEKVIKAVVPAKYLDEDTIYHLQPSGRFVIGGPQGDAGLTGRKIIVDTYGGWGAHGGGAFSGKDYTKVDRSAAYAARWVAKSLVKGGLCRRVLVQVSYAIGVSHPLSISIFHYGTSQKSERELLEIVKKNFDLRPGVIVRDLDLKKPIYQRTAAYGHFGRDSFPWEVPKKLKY
Test: Phosphate Sensor Fluorescence Assay (MAT2A enzyme inhibition)
Type: biochemical
Details: L-methionine 500 uM, ATP 500 uM, class symbols
quantityKind: IC50

O=c1nc(NCC(F)F)c2ccc(C(F)(F)F)cc2n1-c1ncccn1 [Example 122]: < 200 nM

We now examine a further compound.
Quick one: IC50 of O=c1nc(N2CCC2CO)c2ccc(Cl)cc2n1-c1ccccc1 (stereo not shown) [Example 186] ?
< 200 nM

---

Target: hMAT2A (Homo sapiens (Human))
Experiment: Phosphate Sensor Fluorescence Assay (MAT2A enzyme inhibition)
Type: biochemical
Conditions: L-methionine 500 uM, ATP 500 uM, class symbols
pIC50: −log10 of the molar value.
quantityKind: pIC50

The following compounds have reported results that may help.
CN(C)c1nc(=O)n(-c2ccc3[nH]ncc3c2)c2cc(Cl)ccc12: > 6.70
COc1cc(C2CC2)cc2c1c(NCC1(F)CC1)nc(=O)n2-c1ccccc1Cl: > 6.70
O=c1nc(NCC2CC2)c2ccc(C(F)(F)F)nc2n1-c1ccccc1Cl: > 6.70
O=c1[nH]c(=O)n(-c2ccccc2Cl)c2cc(C(F)(F)F)ccc12: > 6.70
CO[C@H]1CCN(c2nc(=O)n(-c3ccccc3)c3cc(Cl)ccc23)C1: > 6.70
Cn1ccc(CNc2nc(=O)n(-c3ccccc3Cl)c3nc(C(F)(F)F)ccc23)n1: > 6.70
CN(Cc1cccnc1)c1nc(=O)n(-c2ccccc2)c2cc(Cl)ccc12: > 6.70
CNc1nc(=O)n(-c2ccc(C)nc2)c2nc(C(F)(F)F)ccc12: > 6.70
CC(=O)Nc1nc(=O)n(-c2ccccc2)c2cc(Cl)ccc12: 6.30 to 6.70
Cc1ccc2c(N3CC(O)C3)nc(=O)n(-c3ccccc3)c2n1: > 6.70

Quick one: pIC50 of CNc1nc(=O)n(-c2ccccc2)c2cc(C(F)(F)F)cc(F)c12 ?
> 6.70

Would you kindly repeat that for CNc1nc(=O)n(-c2cccc(CC(=O)O)c2)c2cc(Cl)ccc12 ?
> 6.70

Would you kindly repeat that for CNc1nc(=O)n(-c2cccc(C(F)(F)F)c2)c2cc(Cl)ccc12 ?
6.30 to 6.70

Would you kindly repeat that for CNc1nc(=O)n(-c2ccccc2Cl)c2cc(C3CC3)ccc12 ?
> 6.70

Would you kindly repeat that for Nc1nc(=O)n(-c2ncccn2)c2cc(C(F)(F)F)ccc12 ?
6.00 to 6.30

Would you kindly repeat that for CNc1nc(=O)n(-c2cccc(C#N)c2)c2nc(C(F)(F)F)ccc12 ?
> 6.70

Would you kindly repeat that for NC(=O)CNc1nc(=O)n(-c2ccccc2Cl)c2nc(C(F)(F)F)ccc12 ?
> 6.70

Would you kindly repeat that for Cc1ncccc1-n1c(=O)nc(NCC(F)F)c2ccc(C(F)(F)F)cc21 ?
> 6.70

Would you kindly repeat that for CNc1nc(=O)n(-c2cncc(O)c2)c2nc(C(F)(F)F)ccc12 ?
> 6.70

Would you kindly repeat that for [2H]C([2H])([2H])Nc1nc(=O)n(-c2ccccc2C)c2nc(C(F)(F)F)ccc12 ?
> 6.70
